Values from patent EP4656642A1

Target: ERα (Homo sapiens, UniProt P03372)
Assay: Degradation of ERα in MCF-7 cells (immunoblotting, 4 h)
Type: cell-based
Conditions: 1nM compound
READOUT: Degradation rate (%) of ERα in MCF-7 cells

CN(C1CCN(c2ccc([C@@H]3c4ccc(O)cc4CC[C@@H]3c3ccccc3)cc2)CC1)[C@H]1CC[C@@H](C(=O)N2CCC3(CC2)COc2c3ccc3c2CN(C2CCC(=O)NC2=O)C3=O)CC1 (some centres unmarked)    60

A: O=C1CCC(N2Cc3cc4c(cc3C2=O)OC2(CC4)CN(C3CCN(C(=O)c4ccc([C@@H]5c6ccc(O)cc6CC[C@@H]5c5ccccc5)cc4)CC3)C2)C(=O)N1 (some centres unmarked)
B: O=C1CCC(N2Cc3c(ccc4c3OCC43CCN(C(=O)C(=O)N4CCC5(CCN(c6ccc([C@@H]7c8ccc(O)cc8CC[C@@H]7c7ccccc7)cc6)CC5)C4)CC3)C2=O)C(=O)N1 (some centres unmarked)
C: C[C@@H]1Cc2c(ccc3[nH]ncc23)C(c2ccc(N3CCC4(CCC(N5CCC6(CC5)COc5c6ccc6c5CN(C5CCC(=O)NC5=O)C6=O)CC4)CC3)cn2)N1CC(F)(F)F (some centres unmarked)
D: C[C@@H]1Cc2c([nH]c3ccccc23)[C@@H](c2c(F)cc(N3CC4(CCC(N5CCC6(CC5)COc5c6ccc6c5CN(C5CCC(=O)NC5=O)C6=O)CC4)C3)cc2F)N1CC(F)F (some centres unmarked)
List these items ordered by Degradation rate (%) of ERα in MCF-7 cells, big to small. Hello, could you send the labels back in the order asked? Thank you. B, D, C, A

---

Biological target: ERα (Homo sapiens)
Sequence (P03372 1-595): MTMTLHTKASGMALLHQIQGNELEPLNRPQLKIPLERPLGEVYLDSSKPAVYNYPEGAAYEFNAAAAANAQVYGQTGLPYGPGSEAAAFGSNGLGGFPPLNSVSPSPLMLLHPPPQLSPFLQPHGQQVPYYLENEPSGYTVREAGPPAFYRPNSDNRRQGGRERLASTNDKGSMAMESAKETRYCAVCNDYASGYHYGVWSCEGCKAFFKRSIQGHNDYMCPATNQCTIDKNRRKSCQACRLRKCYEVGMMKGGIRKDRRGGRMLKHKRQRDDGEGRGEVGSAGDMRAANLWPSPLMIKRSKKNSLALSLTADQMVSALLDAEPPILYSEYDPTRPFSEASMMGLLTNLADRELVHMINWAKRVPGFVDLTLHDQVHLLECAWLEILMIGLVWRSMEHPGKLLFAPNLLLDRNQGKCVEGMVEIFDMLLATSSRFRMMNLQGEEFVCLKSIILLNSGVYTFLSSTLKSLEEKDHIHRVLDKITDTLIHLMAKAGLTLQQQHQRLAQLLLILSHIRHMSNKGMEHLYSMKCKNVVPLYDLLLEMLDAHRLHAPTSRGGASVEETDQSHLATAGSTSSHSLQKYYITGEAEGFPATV
Experiment: Degradation of ERα in T-47D cells (immunoblotting, 4 h)
Format: cell-based
Design: host or cells: T-47D
Conditions: 1nM compound
READOUT: Degradation rate (%) of ERα in T-47D cells

O=C1CCC(N2C(=O)c3ccc4c(c3C2=O)OCC42CCN(C(=O)CN3CCC4(CCN(c5ccc([C@@H]6c7ccc(O)cc7CC[C@@H]6c6ccccc6)cc5)CC4)C3)CC2)C(=O)N1 (stereo partly drawn) [K24]    48

1: O=C1CCC(N2C(=O)c3cc4c(cc3C2=O)OC2(CC4)CN(CC3CC4(CCN(c5ccc([C@@H]6c7ccc(O)cc7CC[C@@H]6c6ccccc6)cc5)CC4)C3)C2)C(=O)N1 (stereo partly drawn) [B11]
2: CN(CC(=O)N1CCC2(CC1)COc1c2ccc2c1CN(C1CCC(=O)NC1=O)C2=O)C1CCC2(CC1)CCN(c1ccc([C@@H]3c4ccc(O)cc4CC[C@@H]3c3ccccc3)cc1)CC2 (stereo partly drawn) [H51]
Choose between 1 and 2 : whose measured Degradation rate (%) of ERα in T-47D cells value is numerically larger? Provide the label of your selected option as the answer. 2
